# Assay Text: yeast display, Sf9 membrane polyspecificity reagent, FACS + sequencing; frameworks hold sequencing errors
Quantity Measured: polyreactivity (PSR sort gate)

| Sequence Content | Quantity Measured | Result |
| --- | --- | --- |
| QVQLVESGGGLVQAGGSLRLSCAASGITFFPYAMGWYIQAPGKERELVADITWRGGRTYYADSVKGRFTISRDNAKNTVYLQMNSLKPEDTAVYYCAKVARQNWFRYNYDYWGQGTQVTVSS | polyreactivity (PSR sort gate) | high polyreactivity |
| QVQIVDSGGGLVQAGGSLRISCAASGRIFAGYGKGWYRQAPGKERELVAAISSGGSTYYADSVKGRFTISRDNAKNTVYLQMNSLKPEDTAVYYCATDGQSVPDDYYQNVDYDYWGQGTQVTVSS | polyreactivity (PSR sort gate) | low polyreactivity |
| QVQLVESGGGLVQAGGSLRLSCAASGSTFEFYAMGWYRQAPGKERELVAAISSIGGSTYYADSVKGRFTISRDNAKNTVYLQMNSLKPEDTAVYYCAATSDSSLYVYWGQGTQVTVSS | polyreactivity (PSR sort gate) | low polyreactivity |
| QVQLVDSGGGLVQAGGSLRLSSAASGITFQRYAMGWYRQAPGKERELVAGINGRGGSTYYADSVKGRFTISRDNAKNTVYLQMNSLKPEDTAVYYCNAVYAGRYFGFDYWGQGTQVTVSS | polyreactivity (PSR sort gate) | high polyreactivity |
| QVQLVESGGGLVQAGGSHRLSCDASGRTFWVNAMGWYRQAPGKERELVATIRGSGVSTYYADSVNGRFTISRDNAKNTVYLKMNSLKPVDTAVYYCATTYHRVGLQYTFDYLGQGTQVTVSS | polyreactivity (PSR sort gate) | low polyreactivity |
| QVQLVESGGGLVHARGSLRLSCAASGCTFVRNAMGWYRPAPGKERELGAAITSRGGSTYYADSVKGRFTISRDNAKNTVYLQMNSLKPEDTAVYYCAARFGVKRGQYDFWGQGTQVTVSS | polyreactivity (PSR sort gate) | high polyreactivity |
| QVQLVESGGGLVQAGGSLRLTCAASGFIFTYPNAKGWNIQAPGKERELVAAISWRGGGTYYADSVKGRFTISRDNAKNTVYLQMNSLKPEDTAVYYCADYVPAPRRTYNYWGQGTQVTVSS | polyreactivity (PSR sort gate) | high polyreactivity |
| QVQLVESGGGLVQAGGSLRLSCAASGSIIFYYAMGWYRQAPGKERDFVAGITYSGGITYYADSVKGRFTISRDNAKNTVYLQMNSMKPEDTAVYFCDYGGGVYQYGYWGQGTQVTVSS | polyreactivity (PSR sort gate) | low polyreactivity |
| QVQLVESWGGLVQAGGSLRISCAASGRISYGYAMGWYRQAPGKERELVAAISRSGGTTYYADSVKGRFTISRDNAKNTVYLQMNSLNPEDTAVYYCAAGDAYYTEALPFGDYDYWGQGTQVTVSS | polyreactivity (PSR sort gate) | low polyreactivity |
| QVQLVDSGGGLVQAGGSLRLSCAASGYTFGNNARAWYRQAPGKERELVARIRTNGGTTYYADSVKGRFTISRDNAKYTVYLQMNSLKPEDTAVYYCNAYRGYEYDYWGQGTQVTVSS | polyreactivity (PSR sort gate) | low polyreactivity |
| QVQLVESGGGIVQAGGSLRLICAASGFIFVTYAMGWYRQAPGKETELVAAITNSGGTTYYADSVKGRFTISRDNAKNTVYLQMNSLKPEDTAVYYCAADVWTPYLISLKSGYDYWGQGTQVTVSS | polyreactivity (PSR sort gate) | low polyreactivity |

====

# Assay Text: yeast display, Sf9 membrane polyspecificity reagent, FACS + sequencing; frameworks hold sequencing errors

| Sequence Content | polyreactivity (PSR sort gate) |
| --- | --- |
| QVQLVESGGGLVQAGGSLRLSCAASGSIFKYNTMGWYRQAPGKERELVAAIRYSGGRTYYADSVKGRFTISRDYAKNTVYLQMNSLKPEDTAVYYCAAGSIQYRPTYTGDYWGQGTQVTVSS | high polyreactivity |
| QVQLVESGGGLVQAGGSLRLSCAASGSIFTGYAMGWYRQAPGKERELVAAISNSGTSTYYADSVKGRFTISRDNAKNTVYLQMNSLKPEDTAVYYCNTVGHRWLSDDDYWGQGTQVTVSS | low polyreactivity |
| QVQLVESGGGLVQAGGSLRLSCAASGITFPRYAMGWYRQAPGKERELVATITRSGGGTYYADSVKGRFTISRDNAKNTVYLQMNSLKPEDTAVYYCAAGALQRGVYGYGYWGQGTQVTVSS | high polyreactivity |
| QVQLVESGGGLVQAGGSLRLSCAASGSMFYKNAMVWYRQAPGKEREMVAAINSVGSTDYADSVKGRFTISRDNAKNTVYLQMNSLTPEDTAVYYCAATNLFTIIDYDYWGQGTQVTVSS | low polyreactivity |
| QVQLVESGGGLVQAGGSLRLSCAASGFIFGYNAMGWYRQAPGKERELLAAITWIGGTTYYADSVKGRFTISRDNAKNTVYLQMNSLNPEDTAVYYCARQRSYGRYSYSYVYEYWGQGTLVTVSS | high polyreactivity |

====

# Assay Text: yeast display, Sf9 membrane polyspecificity reagent, FACS + sequencing; frameworks hold sequencing errors

| Sequence Content | polyreactivity (PSR sort gate) |
| --- | --- |
| QVQLLDSGGGLVQAGCSLRLSCAASGLIFHRNAMGWYRQAPGKERELVAIISSGGGTTYYADSVKGRFTISRDNAKNTVYLQKNSLKPEDTAVYYCNARPRAYGSRGFDYWGQGTQVTVSS | high polyreactivity |
| QVHLVGSGGCLVQAGGSLRLSCAASGITFYYYVMGWYRQSPGKERELVAAINSGGSTNYADSVKGRFTISRDNAKNTVYLQMNSLKPEDTAVYYCNAYTVRSYRFDYWGQGTQVTVSS | high polyreactivity |
| QVQLVESGGGLVQAGGSLRLSCAASGFTITDYAMGWYRQAPGKVRELVAAITWSGGSTYYADSVKGRFTLSRDNAKNTVYLQMNSLKPEDTAVYYCNKVTEGLKMDYWGQGTQVTVSS | low polyreactivity |
| QVQLVESGGGLVQAGGSLRLSCAASGRIFVKNAMGWYRQAPGKERELVAGISRGGSTYYADSVKGRFTISRDNAKNTVYLQMYSLKPEDTAVYYCATRNYGRGQFDYWGQGSQVTVSS | high polyreactivity |
| QVQLVESGGGLVQAGGSLRLSCAASGSTFDPNAMGWYRHAPGKERELVAAIDSGGSSYYADSVKGRFTISRDNAKYTVYLQMNSLKPEDTAVYYCASNIVGRSPYDSNYDFEYWGQGTQVTVSS | low polyreactivity |
| QVQLVESGGGLVQAGGSLRLSCAASGSTLVANAMGWYRQAPGKERELVAAISSGGITYYADSVKGRFTISRDNAKNTVYLQMHSLKPEDTAVYYCAARIRGTWKYGYWGQGTQVTVSS | low polyreactivity |
| QVQLVESGGGLVQAGGSLRLSCAASGRTFRKYAMGGYRHAPGKEREFVASITWSGGSTYYADSVKGRFTISRDNAKNTVYLQMNSLKPEDTAVYFCAAESWFKYVYWGQGTQVTVSS | low polyreactivity |
| QVQLVDSGGGLVQAGGSLRLSCAASGFIFGKYAMGWYRPAPGKEREFVAAITGNGGSTYYADSVKGRFTISRDNAKNTVYLQMNSLKPEDTAVYYCAADASWELFAWAHYDYWGQGTQVTVSS | low polyreactivity |
| QVQLVESGGGLVQAGGSLRLSCAASGRIFLRNAMGWYRQAPGKERELVAAISRRGATTYYADSVKGRFTISRDNAKNTVYLQMNSLKPEDTAVYYCAKRVWETDYDYWGQGTQVTVSS | high polyreactivity |
| QVQLVESGGGLVQAGGSLRLSCAASGRIFRHNAMGWYRQAPGKERELVDAITSRGGTYNAHSVKGRFTISRDNAKITVFLQMTSLNPEETAVYFCNADEALYSSGNKYDYWGQGTQVSVSS | low polyreactivity |
| QVQLVESGGGLVQAGGSLRLSCAASGITFRSYAMGWYRQAPGKERELVAAITSGASTNYADSVKGRFTISRDNAKNTVYLQMNSLKPEDTAVYYCAATYHTWRGQYLWYDYWGQGTQVTVSS | low polyreactivity |

====

# Assay Text: yeast display, Sf9 membrane polyspecificity reagent, FACS + sequencing; frameworks hold sequencing errors
Quantity Measured: polyreactivity (PSR sort gate)

| Sequence Content | Quantity Measured | Result |
| --- | --- | --- |
| QVQLVESGGGLVQAGGSLRLSCAASGSTFWINAMGWYRPAPGKEREFVAAIRWNGGSTNYADSVKGRFTHSRDNAKNTVYLPMNSLKPEDTAVYYCAADGYIGWRHIYEYWGQGTQVTVSS | polyreactivity (PSR sort gate) | low polyreactivity |
| QVQLVESGGGLVQAGGSLRLSCAASGRIFWANAMGWYRQAPGKERELVAAISYSGVSTYYADSVKGRFTISRDNAKNTVYLQMNSLIPEDTAVYYCAADRYRKYYYWGQGTQVTVSS | polyreactivity (PSR sort gate) | high polyreactivity |
| QVQLVESGGGLVQAGGSLRFSCSASGSIFGYNTMGWYRPAPGKERQLVAAISKSGGSTYYADSVKGRFTISRDNAKNTVYLQMNSLKPEDSAVYYCATYAKQLSPYYYWGQGIQVTVSS | polyreactivity (PSR sort gate) | high polyreactivity |
| QVQLVESGGGLVQAGGSLRLSCAASGSTFGYYAMGWYRQAPGKERELVAAISYSGGSTYYADSVKGRFTISRDNAKNTVYLQMNSLKPAVTAVYYCAARFTRQMYYWGQGTQVTVSS | polyreactivity (PSR sort gate) | high polyreactivity |
| QVQLVESGGGLVQAGGSLRLSCAASGRIFPHYSMGWYRQAPGKERELVAAISWSGSSTYYADSVKGRFTISRDNAKNTVYLQMNSLKPEDTAVYYCNAVRRGIGYDYGYWGQGTQVTVSS | polyreactivity (PSR sort gate) | high polyreactivity |
| QVQLVESGGGLVQAGGSLRLSCAASGRIFLYYAMGWYRQAPGKERELVATISSGGSTTYADSVKGRFTISRDNAKNTVYLQMNSLKPEDTAVYYCATQVPGYSGRYDYWGQGTQVTVSS | polyreactivity (PSR sort gate) | low polyreactivity |
| QVQLVESGGGLVQAGGSLRLSCAASGSTLSYNAMGWYRQAPGKERELVAAISWSDGGTYYADSVKGRFTISRDTAKNTVFLQMNSLKPEDTAVYYCAARRGVRYSKFGYYYWGQGTQVTVSS | polyreactivity (PSR sort gate) | high polyreactivity |
| QVQLVESGGGLVQAGGSLRLSCAASGFISAYYAMGWYRQAPGKERELVAAISWNGGRTFYADSVKGRFTISRDNAKNTVYLQMNSLKPEDTAVYYCAADGRLRGYGYWGQGTQVTVSS | polyreactivity (PSR sort gate) | high polyreactivity |
| QVQLVESGGGLVQAGGSLRLSCAASGFTFFPNAMGWYRQAPGKERELVADITDGGSTNYADSVKGRFTISRDNAKNTVYLQLNSLKPEDTADYYCNADWYGWFGGYEYWGQGTQVTVSS | polyreactivity (PSR sort gate) | high polyreactivity |
| QVQLVESGGGLVQAGGSLRLSCAASGFMFDDNAMGWYRQAPRKERELVAAITSGGGSTYYADSVKGRFTISRDYAKITVYLLMNSLKPEDTAVYYCAAGGYPSLLHDYDYWGQGTQVTVSS | polyreactivity (PSR sort gate) | low polyreactivity |
| QVQLVESGGGLVQAGGSLRLSCAASGLTFTTYAMGWYRQAPGKERELVAAISRRGSRTYYADSVKGRFTISRDNAKNTVYLQMNSLKPEDTAVYYCNALTGSFKTYSFDYWGQGTQVTVSS | polyreactivity (PSR sort gate) | high polyreactivity |
| QVQLVESGGGLVQAGGSLRLSCAASGSTFESYAMGWYRQAPGKERELVAAISGRVGSTYYADSVKGRFTISRDNAKNTVYLQMNSLKPEDTAVYYCASKGWYSHYGGYDYWGQGTQVTVSS | polyreactivity (PSR sort gate) | low polyreactivity |
| QVQLVESGGGLVQARGSLRLSCAASGRTFFENAMGWYRQAPGKERELVATITTTGGSTYYADSVKGRFTISRDNAKNTVYLQMNSLKPEYTAVYYCATRGWYLGSRGYRNRYGYWGQGTQVTVSS | polyreactivity (PSR sort gate) | high polyreactivity |
| QFQLVESGGGLVQAGGSLRLRCAASGLIIKKYTMGWYRQAPGKEMELVASISKSGGSTYYADSVKGRFTISRDNAKNTVYLQMNSLKPEDTAVYYCNRVTHYIRFDYWGQGTQVTVSS | polyreactivity (PSR sort gate) | low polyreactivity |
| QVQLVESGGGLVQAGGSLRLSCAASGFTFYVNAMGWYRQAPGKERELVAVISTGGSTYYADSVKGRFTISRDNAKNTVYLQMNSLKPEDTAVYYCAKRDLPDRSGTPNVIPFDYWGQGTQVTVSS | polyreactivity (PSR sort gate) | low polyreactivity |
| QVQLVESGGGLVQAGGSLRLSCAASGSILGLYAMGWYRQAPGKERELVAAISSGGSTYYADSVKGRFTISRDNAKNTVYLQMNSLKPEDSAVYYCAADLSWSRVVFGDYDYWGQGTQVTVSS | polyreactivity (PSR sort gate) | low polyreactivity |
| QVQLVESGVGLVKAGVSLRLSSDASARIFPHYAMGWYRQAPGKERELFAPINVDGGRTYYPDSVKGRFTISRDNAKNTVYLQLNILKPEDTAVYYCAAKPFLYHDQDYGYAVEFNYWGQGTQVTVSS | polyreactivity (PSR sort gate) | low polyreactivity |
| QVQLVESGGGLVQAGGSLRLSCAASGRIFDLNAMGWYRQAPGKERELVADINSGGSTYYADSVKGRFTISRDNAKNTVYLQMNSLKPEDTAVYYCAVRRNQHVVQMYYWGQGTQVTVSS | polyreactivity (PSR sort gate) | low polyreactivity |
| QVQLVESGGGLVQAGGSLRLTCAASGGIFTDYTMGWYRQAPGKERELVSAITWTGGSTYYADSVKGRFTISRDNAKNTVYLQMNSLKPEDTAVYYCYVVKYVYIYSYWEYYFWGQGTQVTVSS | polyreactivity (PSR sort gate) | low polyreactivity |
| QVQLVESGGGLVQAGGSLRLSCAASGSTFYYYTMGWYRQAPGKERELVARITRSGGTTYYADSVKGRFTISRDNAKNTVYLQMNSLKPEDTAVYYCAARRYGYTSITWYDYWGQGTLVTVSS | polyreactivity (PSR sort gate) | high polyreactivity |
| QVQLVESGGGLVQAGGSLRLSCAASGFTFYGYAMGWYRQAPGKERELVASINRSGGTTYYADSVKGRFTISRDNAKNTVYLQMNSLKPEDTAVYYCAASYVYRFTKYYYWGQGTQVTVSS | polyreactivity (PSR sort gate) | high polyreactivity |
